Provenance of the data: paper PMC10681709

System tested: T1, mTREX1 truncated (nuclease domain) (Mus musculus, UniProt Q91XB0 1-242)
T1 sequence: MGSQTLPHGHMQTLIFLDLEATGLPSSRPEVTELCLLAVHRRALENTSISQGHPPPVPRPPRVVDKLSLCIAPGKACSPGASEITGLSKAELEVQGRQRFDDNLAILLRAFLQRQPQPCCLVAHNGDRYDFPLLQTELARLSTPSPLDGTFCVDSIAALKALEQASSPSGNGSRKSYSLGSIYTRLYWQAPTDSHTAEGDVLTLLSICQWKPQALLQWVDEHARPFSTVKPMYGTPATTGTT
Protocol: fluorescence anisotropy; 20 mM EDTA; not saturated, extrapolated (legend prints uM, text nM); FA: 5 nM FAM nucleic acid, 120 mM NaCl, 20 mM Tris pH 7.0, 20 mM EDTA, room temperature, 30 min; RNase T EMSA: 120 mM NaCl, 50 mM EDTA, 20 mM buffer (truncated)
Settings: protein: recombinant; tags: His-tag; chain copies: 2; label: 5'-FAM; single strand
pKd: −log10 of the molar value.
Endpoint: pKd

Memo: ACUGGACAAAUACUCCGAGG (ssRNA) [ssRNA20] , reported pKd: ~4.23
